- Tested on: Escherichia coli ATCC 25922
- protocol notes: ≥ marks a high value that may be exact or a test limit, other limits are often not marked, values filed in µg/mL are converted to µM
property label: MIC

Quick check: MIC of CC(C)C[C@H](NC(=O)[C@H](CCC(N)=O)NC(=O)[C@H](CCCN=C(N)N)NC(=O)[C@H](CCCN=C(N)N)NC(=O)[C@@H]1CCCN1C(=O)[C@H](C)N)C(=O)N[C@@H](CCCCN)C(=O)N[C@@H](Cc1c[nH]c2ccccc12)C(=O)O [APRRQLKW] ? 15.2 µM

I have this compound here, CC(C)C[C@H](NC(=O)[C@H](Cc1c[nH]c2ccccc12)NC(=O)[C@H](Cc1c[nH]c2ccccc12)NC(=O)[C@H](CC(C)C)NC(=O)[C@@H](N)Cc1ccccc1)C(=O)N[C@@H](Cc1ccccc1)C(=O)N[C@@H](CCCCN)C(=O)N[C@@H](Cc1c[nH]c2ccccc12)C(=O)N[C@@H](C)C(=O)N[C@@H](Cc1c[nH]c2ccccc12)C(=O)N[C@@H](CCCCN)C(N)=O [FLWWLFKWAWK] , and I need its recorded MIC. > 124 µM

Look up MIC for this compound: CSCC[C@H](NC(=O)[C@H](Cc1ccccc1)NC(=O)CNC(=O)[C@H](Cc1cnc[nH]1)NC(=O)[C@H](CC(C)C)NC(=O)[C@H](CO)NC(=O)CN)C(=O)N[C@@H](Cc1ccc(O)cc1)C(=O)N[C@@H](CCCN=C(N)N)C(=O)N[C@@H](Cc1ccc(O)cc1)C(=O)N[C@@H](CC(C)C)C(=O)N[C@@H](CCCCN)C(=O)N[C@@H](CC(N)=O)C(=O)N[C@@H](CCSC)C(=O)N[C@H](C(=O)N[C@@H](CC(C)C)C(=O)N[C@@H](CC(N)=O)C(=O)N[C@@H](CC(C)C)C(=O)N[C@@H](Cc1ccccc1)C(N)=O)C(C)C [GSLHGFMYRYLKNMVLNLF] 32 µM

Requested field: MIC. Item: CC(C)C[C@H](NC(=O)[C@H](CC(C)C)NC(=O)[C@H](CCCCN)NC(=O)[C@H](CC(C)C)NC(=O)CNC(=O)[C@H](CC(C)C)NC(=O)[C@H](CCCCN)NC(=O)[C@H](CC(C)C)NC(=O)[C@H](CC(C)C)NC(=O)[C@H](CC(C)C)NC(=O)[C@H](CCCCN)NC(=O)[C@H](CC(C)C)NC(=O)CN)C(N)=O [GLKLLLKLGLKLL] > 25 µM

Look up MIC for this compound: CC[C@H](C)[C@H](NC(=O)[C@H](CCCN=C(N)N)NC(=O)[C@H](CCCCN)NC(=O)[C@H](C)NC(=O)[C@H](CC(C)C)NC(=O)CN)C(=O)N[C@@H](CCCCN)C(=O)N[C@H](C(=O)N[C@@H](CC(C)C)C(=O)N[C@@H](CC(C)C)C(N)=O)[C@@H](C)O [GLAKRIKTLL] > 34.2 µM

Would you kindly share the measured MIC for CC(C)C[C@H](NC(=O)[C@H](Cc1ccccc1)NC(=O)[C@@H]1CCCN1C(=O)[C@H](C)NC(=O)[C@H](Cc1c[nH]c2ccccc12)NC(=O)[C@H](C)NC(=O)[C@@H]1CCCN1C(=O)[C@H](Cc1ccccc1)NC(=O)[C@H](CCCN=C(N)N)NC(=O)[C@H](CCCN=C(N)N)NC(=O)[C@@H](N)C(C)C)C(=O)N[C@@H](CCCN=C(N)N)C(=O)N[C@@H](CCCN=C(N)N)C(N)=O [VRRFPAWAPFLRR] ? 90.5 µM

Numbers sourced from DBAASP.
